# ASSAY PROTOCOL: Metabolic stability in mouse liver microsomes assessed as parent compound remaining at 1 uM measured after 5 min in presence of NADPH by LC-MS/MS analysis
# Assay type: ADME, Microsome
# PARTICULARS: read-out: Stability
MEASURE: remaining at 5 min, 1 µM (%)
Respond with the bare value in %.

Entry "COc1cccc([C@@]2(O)CC[C@H](N(Cc3ccccc3)S(=O)(=O)c3cccc(Cl)c3)C[C@@H]2CN(C)C)c1.Cl" has what remaining at 5 min, 1 µM?
29

---

# ASSAY PROTOCOL: Metabolic stability in mouse liver microsomes assessed as half life at 1 uM measured upto 60 mins in presence of NADPH by LC-MS/MS analysis
# Type: ADME, Microsome
Assignment: determine reported half-life at 1 µM for the given compounds.
Respond with the bare value in min.

Entry "O=C(O)Cc1ccccc1Nc1c(Cl)cccc1Cl" has what half-life at 1 µM?
47.1

Continue with "COc1cccc([C@@]2(O)CC[C@H](N(Cc3ccccc3)S(=O)(=O)c3cccc(Cl)c3)C[C@@H]2CN(C)C)c1.Cl"
3.95

---

# ASSAY PROTOCOL: Metabolic stability in mouse liver assessed as intrinsic clearance at 1 uM measured upto 60 mins in presence of NADPH by LC-MS/MS analysis
# Format: ADME, tissue-based
# PARTICULARS: read-out: CLH
MEASURE: CLint scaled at 1 µM (mL/min/kg)
Respond with the bare value in mL/min/kg.

Entry "COc1cccc([C@@]2(O)CC[C@H](N(Cc3ccccc3)S(=O)(=O)c3cccc(Cl)c3)C[C@@H]2CN(C)C)c1.Cl" has what CLint scaled at 1 µM?
1390

Continue with "O=C(O)Cc1ccccc1Nc1c(Cl)cccc1Cl"
116

---

# SYSTEM NAME: Kappa-type opioid receptor (Homo sapiens)
# Sequence (P41145 whole entry): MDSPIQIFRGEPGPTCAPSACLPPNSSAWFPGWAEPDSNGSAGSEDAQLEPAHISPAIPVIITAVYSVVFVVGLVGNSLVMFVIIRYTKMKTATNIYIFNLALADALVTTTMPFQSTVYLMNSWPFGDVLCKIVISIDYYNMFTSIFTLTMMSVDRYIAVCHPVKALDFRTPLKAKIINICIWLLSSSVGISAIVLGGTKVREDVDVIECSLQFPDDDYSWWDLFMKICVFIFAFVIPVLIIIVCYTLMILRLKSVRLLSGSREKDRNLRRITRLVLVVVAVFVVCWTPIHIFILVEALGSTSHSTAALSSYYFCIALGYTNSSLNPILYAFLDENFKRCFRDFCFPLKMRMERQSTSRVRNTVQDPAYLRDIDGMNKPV
# ASSAY PROTOCOL: Displacement of [3H] U69593 from human kappa-opioid receptor extracted from CHO cell membrane at 0.1 uM by liquid scintillation counting analysis relative to control
# Type: cell membranes
MEASURE: inhibition
Please append the unit to your numeric answer.

Entry COc1cccc(C2(O)CCC(N(Cc3ccccc3)S(=O)(=O)c3ccccc3)CC2CN(C)C)c1 (stereo not given) has what inhibition?
39.7%

Continue with COc1cccc(C2(OC(=O)c3ccccc3)CCC(NS(=O)(=O)c3cccc(Cl)c3)CC2CN(C)C)c1 (stereo not given)
30.5%

Continue with COc1cccc(C2(OC(=O)c3ccccc3)CCC(N(C)S(=O)(=O)Cc3cccc(Cl)c3)CC2CN(C)C)c1 (stereo not given)
16.6%

Continue with COc1cccc(C2(O)CCCCC2CN(C)C)c1 (stereo not given)
0%

Continue with COc1cccc(C2(O)CCC(NS(=O)(=O)c3cccc(Cl)c3)CC2CN(C)C)c1 (stereo not given)
15%

Continue with COc1cccc(C2(OC(=O)c3ccccc3)CCC(NS(=O)(=O)c3ccccc3)CC2CN(C)C)c1 (stereo not given)
12.9%

Continue with COc1cccc(C2(OC(=O)c3ccccc3)CCC(N(C)S(=O)(=O)Cc3ccccc3)CC2CN(C)C)c1 (stereo not given)
28.8%

Continue with COc1cccc(C2(O)CCC(NS(=O)(=O)c3ccccc3)CC2CN(C)C)c1 (stereo not given)
7.2%

Continue with COc1cccc(C2(O)CCC(N(C)S(=O)(=O)c3cccs3)CC2CN(C)C)c1 (stereo not given)
22%

Continue with COc1cccc(C2(O)CCC(N(C)S(=O)(=O)c3cccc(Cl)c3)CC2CN(C)C)c1 (stereo not given)
22.7%

Continue with COc1cccc(C2(O)CCC(N(C)S(=O)(=O)c3ccccc3)CC2CN(C)C)c1 (stereo not given)
15.3%

Continue with COc1cccc(C2(O)CCC(N(Cc3ccccc3)S(=O)(=O)c3cccs3)CC2CN(C)C)c1 (stereo not given)
14.9%

Continue with COc1cccc(C2(O)CCC(NS(=O)(=O)Cc3ccccc3)CC2CN(C)C)c1 (stereo not given)
11.2%

Continue with COc1cccc(C2(O)CCC(NS(=O)(=O)c3cccs3)CC2CN(C)C)c1 (stereo not given)
15.2%

Continue with COc1cccc(C2(O)CCC(NS(=O)(=O)Cc3cccc(Cl)c3)CC2CN(C)C)c1 (stereo not given)
6.9%

---

# ASSAY PROTOCOL: Tmax in ICR mouse at 2 mg/kg, iv measured after 24 hrs
# Type: ADME, organism-based
# PARTICULARS: in vivo
MEASURE: Tmax (min)
Respond with the bare value in min.

Entry "COc1cccc([C@@]2(O)CC[C@H](N(Cc3ccccc3)S(=O)(=O)c3cccc(Cl)c3)C[C@@H]2CN(C)C)c1.Cl" has what Tmax?
4.98

---

# ASSAY PROTOCOL: Half-life in ICR mouse at 2 mg/kg, iv measured after 24 hrs
# Format: ADME, organism-based
# PARTICULARS: in vivo
MEASURE: half-life
Please append the unit to your numeric answer.

Entry "COc1cccc([C@@]2(O)CC[C@H](N(Cc3ccccc3)S(=O)(=O)c3cccc(Cl)c3)C[C@@H]2CN(C)C)c1.Cl" has what half-life?
1.19 h

---

# SYSTEM NAME: Mu-type opioid receptor (Rattus norvegicus)
# ASSAY PROTOCOL: Displacement of [3H] DAMGO from rat mu-opioid receptor extracted from CHO cell membrane at 0.1 uM by liquid scintillation counting analysis relative to control
# Type: cell membranes
Assignment: determine reported inhibition for the given compounds.
Respond with the bare value in %.

Entry COc1cccc(C2(O)CCCCC2CN(C)C)c1 (stereo not drawn) has what inhibition?
6

Continue with COc1cccc(C2(O)CCC(NS(=O)(=O)c3cccs3)CC2CN(C)C)c1 (stereo not drawn)
1.2

Continue with COc1cccc(C2(O)CCC(N(Cc3ccccc3)S(=O)(=O)c3cccs3)CC2CN(C)C)c1 (stereo not drawn)
9.5

Continue with "COc1cccc([C@@]2(O)CC[C@H](N(Cc3ccccc3)S(=O)(=O)c3cccc(Cl)c3)C[C@@H]2CN(C)C)c1.Cl"
25.8

Continue with COc1cccc(C2(O)CCC(NS(=O)(=O)Cc3ccccc3)CC2CN(C)C)c1 (stereo not drawn)
41.1

Continue with COc1cccc(C2(OC(=O)c3ccccc3)CCC(N(C)S(=O)(=O)Cc3cccc(Cl)c3)CC2CN(C)C)c1 (stereo not drawn)
0

Continue with COc1cccc(C2(O)CCC(N(C)S(=O)(=O)c3ccccc3)CC2CN(C)C)c1 (stereo not drawn)
38.6

Continue with COc1cccc(C2(O)CCC(N(C)S(=O)(=O)c3cccs3)CC2CN(C)C)c1 (stereo not drawn)
0

---

# ASSAY PROTOCOL: Metabolic stability in mouse liver microsomes assessed as intrinsic clearance at 1 uM measured upto 60 mins in presence of NADPH by LC-MS/MS analysis
# Assay type: ADME, Microsome
# PARTICULARS: read-out: CLH
Assignment: determine reported microsomal CLint at 1 µM for the given molecules.
Respond with the bare value in µL/min/mg.

Entry "O=C(O)Cc1ccccc1Nc1c(Cl)cccc1Cl" has what microsomal CLint at 1 µM?
29.4

Continue with "COc1cccc([C@@]2(O)CC[C@H](N(Cc3ccccc3)S(=O)(=O)c3cccc(Cl)c3)C[C@@H]2CN(C)C)c1.Cl"
351

---

# ASSAY PROTOCOL: Tmax in ICR mouse at 5 mg/kg, po measured after 24 hrs
# Type: ADME, organism-based
# PARTICULARS: in vivo
MEASURE: Tmax (min)
Respond with the bare value in min.

Entry "COc1cccc([C@@]2(O)CC[C@H](N(Cc3ccccc3)S(=O)(=O)c3cccc(Cl)c3)C[C@@H]2CN(C)C)c1.Cl" has what Tmax?
4.98

---

# ASSAY PROTOCOL: Half-life in ICR mouse at 5 mg/kg, po measured after 24 hrs
# Format: ADME, organism-based
# PARTICULARS: in vivo
MEASURE: half-life (min)
Respond with the bare value in min.

Entry "COc1cccc([C@@]2(O)CC[C@H](N(Cc3ccccc3)S(=O)(=O)c3cccc(Cl)c3)C[C@@H]2CN(C)C)c1.Cl" has what half-life?
16.2

---

# ASSAY PROTOCOL: Cmax in ICR mouse at 2 mg/kg, iv measured after 24 hrs
# Assay type: ADME, organism-based
# PARTICULARS: in vivo
MEASURE: Cmax (ng/mL)
Respond with the bare value in ng/mL.

Entry "COc1cccc([C@@]2(O)CC[C@H](N(Cc3ccccc3)S(=O)(=O)c3cccc(Cl)c3)C[C@@H]2CN(C)C)c1.Cl" has what Cmax?
221

---

# ASSAY PROTOCOL: Metabolic stability in mouse liver microsomes assessed as parent compound remaining at 1 uM measured after 15 min in presence of NADPH by LC-MS/MS analysis
# Type: ADME, Microsome
# PARTICULARS: read-out: Stability
MEASURE: remaining at 0.25 h, 1 µM (%)
Respond with the bare value in %.

Entry "COc1cccc([C@@]2(O)CC[C@H](N(Cc3ccccc3)S(=O)(=O)c3cccc(Cl)c3)C[C@@H]2CN(C)C)c1.Cl" has what remaining at 0.25 h, 1 µM?
6.7

---

# SYSTEM NAME: UniProt P41145
# ASSAY PROTOCOL: Displacement of [3H] U69593 from human kappa-opioid receptor extracted from CHO cell membrane assessed as inhibition constant by liquid scintillation counting analysis
# Assay type: cell membranes
MEASURE: pKi
Note on pKi: it is the negative log10 of concentration, concentration in mol/L.

Kindly state the measured pKi obtained for CN(C)CC1CC(N(Cc2ccccc2)S(=O)(=O)c2cccc(Cl)c2)CCC1(O)c1cccc(O)c1.Cl (configuration not stated) with UniProt P41145.
8.51

Continue with "COc1cccc([C@@]2(O)CC[C@H](N(Cc3ccccc3)S(=O)(=O)c3cccc(Cl)c3)C[C@@H]2CN(C)C)c1.Cl"
8.72
